The reported numbers originate from patent US20240116985A1.

Target: T1, B-cat-Halo (UniProt P35222 1-781)
T1 sequence (looked up): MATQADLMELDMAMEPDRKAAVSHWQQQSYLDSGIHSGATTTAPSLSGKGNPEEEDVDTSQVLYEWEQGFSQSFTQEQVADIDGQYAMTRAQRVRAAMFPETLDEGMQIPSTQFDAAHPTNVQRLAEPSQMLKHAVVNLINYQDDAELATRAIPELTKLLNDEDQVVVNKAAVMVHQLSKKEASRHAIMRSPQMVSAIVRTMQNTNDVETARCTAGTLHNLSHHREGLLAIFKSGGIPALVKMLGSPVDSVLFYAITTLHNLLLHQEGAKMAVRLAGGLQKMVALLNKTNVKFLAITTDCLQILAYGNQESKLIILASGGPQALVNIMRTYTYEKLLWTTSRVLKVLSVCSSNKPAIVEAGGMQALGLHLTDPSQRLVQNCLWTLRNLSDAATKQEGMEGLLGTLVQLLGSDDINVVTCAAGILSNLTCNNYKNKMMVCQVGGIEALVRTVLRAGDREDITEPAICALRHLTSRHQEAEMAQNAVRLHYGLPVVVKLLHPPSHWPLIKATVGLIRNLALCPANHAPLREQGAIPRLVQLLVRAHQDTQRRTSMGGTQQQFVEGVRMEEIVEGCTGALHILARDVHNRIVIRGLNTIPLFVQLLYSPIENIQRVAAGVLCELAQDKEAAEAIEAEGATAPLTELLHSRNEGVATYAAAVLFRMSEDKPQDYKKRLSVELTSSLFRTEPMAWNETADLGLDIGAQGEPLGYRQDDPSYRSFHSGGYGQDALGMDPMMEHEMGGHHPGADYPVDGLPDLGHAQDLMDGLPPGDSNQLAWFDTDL
Experiment: cell-based or functional assay
Starred links: 1 amine or outer side, 2 acyl side, 3 side chain; linkers in the order of their positions; H or OH if unused. Positions of bridges follow the written chain, without caps; N, C: chain ends. Non-standard residues stand in square brackets, D forms with d. Primed or numbered codes have the meaning given here. B5(32) = 2-amino-2-(pent-4-en-1-yl)hept-6-enoic acid (bis-4-pentenylglycine, two alkene side chains), C=CCCCC(CCCC=C)(N[*:1])C(=O)[*:2]; B5(4) = 2,2-bis(4-pentenyl)glycine = 2-amino-2-(pent-4-en-1-yl)hept-6-enoic acid (stitching residue), C=CCCCC(CCCC=C)(N[*:1])C(=O)[*:2]; PyrS2 = (S)-3-amino-1-((pent-4-en-1-yloxy)carbonyl)pyrrolidine-3-carboxylic acid, C=CCCCOC(=O)N1CC[C@@](N[*:1])(C(=O)[*:2])C1; 3Br4FF = (S)-2-amino-3-(3-bromo-4-fluorophenyl)propanoic acid, O=C([C@H](Cc1ccc(F)c(Br)c1)N[*:1])[*:2]; Phe(3-COOH) = N[C@@H](Cc1cccc(C(=O)O)c1)C(=O)O; Phe(2-CF3) = N[C@@H](Cc1ccccc1C(F)(F)F)C(=O)O; Bta = N[C@@H](Cc1csc2ccccc12)C(=O)O; αAllylPro = C=CC[C@@]1(C(=O)O)CCCN1; tBuAla = CC(C)(C)C[C@H](N)C(=O)O; 3Thi = N[C@@H](Cc1ccsc1)C(=O)O
Below: a set of entries, each annotated with reported NanoBRET Abs IC50.
Your answer is read as µM, so omit the unit and give the number.

BINDER	ASSAY VALUE
Ac-[αAllylPro]D[tBuAla][B5(4)]D[Phe(3-COOH)]QAFL[PyrS2][Phe(2-CF3)][3Br4FF]A-NH2 (staple 1-4, 4-11) [I-2290]	7.9

Let us examine a further case.
Qu. // returns reported NanoBRET Abs IC50 for input Ac-[αAllylPro]D[tBuAla][B5(32)]D[Phe(3-COOH)]AAFL[PyrS2][3Thi][Bta]NLLL-NH2 (staple 1-4, 4-11; also: earlier eluting staple isomer (HPLC peak)) [I-2275]
Ans. 3.5
